- targetOrTestSystem: TLR9 (Homo sapiens, UniProt Q9NR96)
- Construct: expressed in transfected cells; host or cells: HEK293
- Sequence (Q9NR96 26-1032): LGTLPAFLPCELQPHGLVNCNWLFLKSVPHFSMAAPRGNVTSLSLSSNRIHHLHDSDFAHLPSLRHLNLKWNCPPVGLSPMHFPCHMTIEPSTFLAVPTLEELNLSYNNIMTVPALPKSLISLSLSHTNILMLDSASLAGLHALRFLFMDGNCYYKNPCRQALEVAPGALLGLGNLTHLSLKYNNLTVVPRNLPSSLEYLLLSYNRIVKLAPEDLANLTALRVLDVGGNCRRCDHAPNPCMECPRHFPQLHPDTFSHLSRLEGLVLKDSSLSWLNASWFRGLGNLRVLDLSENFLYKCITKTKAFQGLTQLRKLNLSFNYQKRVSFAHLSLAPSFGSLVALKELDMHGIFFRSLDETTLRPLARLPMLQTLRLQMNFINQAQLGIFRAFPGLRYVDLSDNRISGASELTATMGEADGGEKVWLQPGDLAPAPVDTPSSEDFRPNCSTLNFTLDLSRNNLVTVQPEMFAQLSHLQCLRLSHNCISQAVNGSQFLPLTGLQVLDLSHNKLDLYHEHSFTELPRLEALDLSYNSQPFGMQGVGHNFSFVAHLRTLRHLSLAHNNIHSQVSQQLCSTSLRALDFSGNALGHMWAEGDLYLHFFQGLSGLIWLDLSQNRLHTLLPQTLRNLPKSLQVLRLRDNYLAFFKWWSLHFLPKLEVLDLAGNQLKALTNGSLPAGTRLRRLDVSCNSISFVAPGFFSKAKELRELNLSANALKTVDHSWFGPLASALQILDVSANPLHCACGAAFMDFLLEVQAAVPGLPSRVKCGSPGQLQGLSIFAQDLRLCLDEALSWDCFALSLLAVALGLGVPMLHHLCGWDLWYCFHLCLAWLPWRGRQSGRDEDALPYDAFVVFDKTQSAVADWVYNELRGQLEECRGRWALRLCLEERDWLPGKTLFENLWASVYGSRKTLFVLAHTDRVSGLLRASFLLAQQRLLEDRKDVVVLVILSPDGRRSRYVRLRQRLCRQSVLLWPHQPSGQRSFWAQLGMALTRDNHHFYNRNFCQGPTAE
- experimentalDetails: TLR9 screening of (+)-morphinan library, SEAP reporter in HEK293 cells expressing TLR9
- Format: cell-based
- conditionDetails: 100 nM; activator ODN2006; control (no activator) 0.14, activator 1.42 OD
Recorded OD 650 nm (mean ± sd), one value per entry.
recordedMetric: OD 650 nm (mean ± sd)

INSERT INTO measurements (compound, recordedmetric, result) VALUES
  ('COC1=C[C@@H]2[C@@H]3Cc4ccc(OC)c(O)c4[C@]2(CCN3C)CC1O (some centres unmarked)', 'OD 650 nm (mean ± sd)', '1.24 ± 0.02 OD'),
  ('C=C(C)c1cc(OC)c(O)c2c1CC1C3CCC(=O)C[C@@]23CCN1CC1CC1 (some centres unmarked)', 'OD 650 nm (mean ± sd)', '1.13 ± 0.04 OD'),
  ('COc1ccc2c3c1O[C@@H]1CCC[C@]4(O)[C@H](C2)N(C)CC[C@@]314', 'OD 650 nm (mean ± sd)', '1.18 ± 0.02 OD'),
  ('COc1ccc2c(c1)CCN(CC1CC1)[C@@H]2Cc1ccc(OC)c(O)c1', 'OD 650 nm (mean ± sd)', '1.03 ± 0.03 OD'),
  ('COC1=CCC2[C@@H]3Cc4ccc(OC)c5c4[C@]2(CCN3CC2CC2)[C@@H]1O5 (some centres unmarked) [II-87]', 'OD 650 nm (mean ± sd)', '1.28 ± 0.06 OD'),
  ('COc1ccc2c(c1OCc1ccccc1)[C@@]13CCN[C@@H](C2)[C@H]1CC(OC)C(=O)C3 (some centres unmarked)', 'OD 650 nm (mean ± sd)', '1.15 ± 0.03 OD'),
  ('C=CCN1CCc2cc(OC)ccc2[C@H]1Cc1ccc(OC)c(O)c1', 'OD 650 nm (mean ± sd)', '1.13 ± 0.02 OD'),
  ('CN[C@@H]1CC[C@]2(O)[C@@H]3Cc4ccc(O)c5c4[C@]2(CCN3CC2CC2)[C@@H]1O5', 'OD 650 nm (mean ± sd)', '0.14 ± 0.02 OD'),
  ('COc1ccc2c3c1O[C@@H]1C(O)CC[C@]4(O)[C@H](C2)N(CC2CCC2)CC[C@@]314 (some centres unmarked)', 'OD 650 nm (mean ± sd)', '1.46 ± 0.08 OD'),
  ('COC1=CCC2[C@@H]3Cc4ccc(OC)c5c4[C@]2(CCN3CC2CC2)[C@@H]1O5 (some centres unmarked) [II-95]', 'OD 650 nm (mean ± sd)', '1.11 ± 0.04 OD'),
  ('CCOC(=O)N1CC[C@@]23CC(=O)CCC2C1Cc1c(Br)cc(OC)c(O)c13 (some centres unmarked)', 'OD 650 nm (mean ± sd)', '1.49 ± 0.04 OD'),
  ('COc1cc(Br)c2c(c1O)[C@@]13CCN(CC4CCC4)C(C2)C1CCC(=O)C3 (some centres unmarked)', 'OD 650 nm (mean ± sd)', '1.13 ± 0.07 OD'),
  ('C=CCN1CC[C@@]23c4c5ccc(OC)c4O[C@@H]2C2(CC[C@@H]3[C@@H]1C5)OCCO2', 'OD 650 nm (mean ± sd)', '1.53 ± 0.10 OD'),
  ('COc1ccc2c3c1O[C@@H]1C(=O)CC[C@@H]4[C@H](C2)N(C(=O)c2ccccc2)CC[C@@]314', 'OD 650 nm (mean ± sd)', '1.35 ± 0.15 OD'),
  ('COc1ccc2c(c1O)[C@@]13CCN(C)[C@@H](C2)[C@H]1CC(OC)C(O)C3 (some centres unmarked)', 'OD 650 nm (mean ± sd)', '1.32 ± 0.04 OD'),
  ('COc1ccc2c3c1O[C@@H]1C(=O)CC[C@@H]4[C@H](C2)N(C(C)=O)CC[C@@]314', 'OD 650 nm (mean ± sd)', '1.40 ± 0.04 OD'),
  ('COC(=O)/C=C/c1cc(OC)c2c3c1CC1C4CCC(=O)[C@@H](O2)[C@@]34CCN1CC1CC1 (some centres unmarked)', 'OD 650 nm (mean ± sd)', '1.22 ± 0.06 OD');

meta.source: patent US10363251B2
